# Assay Details: fission yeast growth modulation, primary screen, strain 972, OD600, 24 h, no modulator (AID 1090);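 also: basal condition with compound alone and no growth modifier present; test concentration not given here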
# Particulars: S. pombe 972 growth, higher = more signal, called active from +8 up or from −8 down
Consider the following partition of reported z-score into named classes: L = under -2, M = from -2 up to -0.2, H = -0.2 and over

Consider the following illustrative entries.
Compound	Discrete Label
C=CCOC(=O)[C@H]1[C@@H]2C(=O)O[C@@H](c3ccccc3)[C@@H](c3ccccc3)N2[C@@H](c2ccc(OCCOC(=O)[C@@H]3C[C@@H]4C(=O)N[C@@H](CCCCNC(C)=O)C(=O)N4[C@@H]3c3ccc(O)cc3)cc2)[C@]12C(=O)Nc1ccccc12	H
CN(C)C(=O)[C@]1(Cc2ccccc2N=[N+]=[N-])N=C(c2ccc(OCCCO)cc2)O[C@@H]1c1ccccc1N=[N+]=[N-]	L

Here is another compound to look at.
Challenge: Bin this entry: COc1cccc(-c2cccc(=O)o2)c1
Response given: L
